Property: CC50 at 72 h; scope: individual compounds
assay: Cytotoxicity against human HepG2 cells after 72 hrs by MTT assay; assay type: cell-based; conditions: HepG2 cells
property-label: CC50 at 72 h (µM)

INSERT INTO measurements (substance_smiles, property_label, censoring_operator, observed_value) VALUES
  ('c1ccn2ccnc2c1', 'CC50 at 72 h', '>', 100),
  ('ClCc1cn2cc(Br)ccc2n1', 'CC50 at 72 h', '>', 100),
  ('O=S(=O)(Cc1cn2cc(I)ccc2n1)c1ccccc1', 'CC50 at 72 h', '=', 5),
  ('Cc1ccc(S(=O)(=O)Cc2cn3cc(Br)ccc3n2)cc1', 'CC50 at 72 h', '=', 28.9),
  ('O=[N+]([O-])c1c(CS(=O)(=O)c2ccc(I)cc2)nc2ccc(Br)cn12', 'CC50 at 72 h', '=', 20.3),
  ('O=S(=O)(Cc1cn2cc(Cl)ccc2n1)c1ccccc1', 'CC50 at 72 h', '=', 16.5),
  ('O=[N+]([O-])c1c(CS(=O)(=O)c2ccc(C(F)(F)F)cc2)nc2ccc(Br)cn12', 'CC50 at 72 h', '=', 31.7),
  ('O=[N+]([O-])c1c(CS(=O)(=O)c2ccccc2)nc2ccc(Cl)cn12', 'CC50 at 72 h', '>', 100),
  ('O=[N+]([O-])c1c(CS(=O)(=O)c2ccc(Cl)cc2)nc2ccc(Br)cn12', 'CC50 at 72 h', '=', 5.5),
  ('O=[N+]([O-])c1c(CS(=O)(=O)c2ccccc2)nc2ccccn12', 'CC50 at 72 h', '>', 62.5),
  ('O=[N+]([O-])c1c(CCl)nc2ccc(Br)cn12', 'CC50 at 72 h', '=', 15.6),
  ('O=S(=O)(Cc1cn2cc(Br)ccc2n1)c1ccccc1', 'CC50 at 72 h', '=', 7.3),
  ('O=[N+]([O-])c1c(CSc2ccccc2)nc2ccc(Br)cn12', 'CC50 at 72 h', '=', 0.53),
  ('O=[N+]([O-])c1c(CS(=O)(=O)c2ccc(Cl)cc2)nc2ccc(Cl)cn12', 'CC50 at 72 h', '>', 25),
  ('O=S(=O)(Cc1cn2cc(I)ccc2n1)c1ccc(Cl)cc1', 'CC50 at 72 h', '=', 39.1),
  ('Cc1ccc(S(=O)(=O)Cc2nc3ccc(Cl)cn3c2[N+](=O)[O-])cc1', 'CC50 at 72 h', '>', 100),
  ('O=[N+]([O-])c1c(CS(=O)(=O)c2ccc(Cl)cc2)nc2ccc(I)cn12', 'CC50 at 72 h', '>', 50),
  ('O=[N+]([O-])c1c(CS(=O)(=O)c2ccccc2)nc2ccc(Br)cn12', 'CC50 at 72 h', '>', 100),
  ('O=[N+]([O-])c1c(CS(=O)(=O)c2ccc(-c3ccccc3)cc2)nc2ccc(Br)cn12', 'CC50 at 72 h', '>', 100),
  ('O=[N+]([O-])c1c(CS(=O)(=O)c2ccc(Br)cc2)nc2ccc(Br)cn12', 'CC50 at 72 h', '=', 39),
  ('Cc1ccc(S(=O)(=O)Cc2nc3ccc(I)cn3c2[N+](=O)[O-])cc1', 'CC50 at 72 h', '>', 50),
  ('Cc1ccc(S(=O)(=O)Cc2cn3cc(Cl)ccc3n2)cc1', 'CC50 at 72 h', '=', 68.3);
